Tested on: pancreatic cancer cell line (BXPC3)
Experiment: tumor cell proliferation inhibition (CTG), pancreatic cancer cell line
Assay type: cell-based
Conditions: Homo sapiens, BXPC-3, 72 hours
pIC50: −log10 of the molar value.
Recorded Endpoint: pIC50

pancreatic cancer cell line (BXPC3) / pIC50 / CNC(=O)c1cc2c(Oc3c(F)cc(NC(=O)NC4CC4)c(F)c3F)ccnc2cc1OC [IIIb-02] : value?
< 5.00

pancreatic cancer cell line (BXPC3) / pIC50 / COc1cc2nccc(Oc3c(F)cc(NC(=O)NC4CC4)c(Cl)c3F)c2cc1C(=O)N1CC(O)C1 [IIIb-24] : value?
< 5.00

pancreatic cancer cell line (BXPC3) / pIC50 / COc1cc2nccc(Oc3c(F)cc(NC(=O)NC4CC4)c(Cl)c3F)c2cc1C(=O)N(C)C [IIIb-03] : value?
< 5.00

pancreatic cancer cell line (BXPC3) / pIC50 / NC(=O)c1cc2c(Oc3c(F)cc(NC(=O)NC4CC4)c(Cl)c3F)ccnc2cc1OCC1(N)CC1 [IIIb-61] : value?
> 5.30

pancreatic cancer cell line (BXPC3) / pIC50 / COc1cc2nccc(Oc3c(F)cc(NC(=O)NC4CC4)c(Cl)c3F)c2cc1C(=O)NCC(F)F [IIIb-08] : value?
> 5.30

pancreatic cancer cell line (BXPC3) / pIC50 / CNC(=O)c1cc2c(Oc3c(F)cc(NC(=O)NC4CC4)c(Cl)c3F)ccnc2cc1OC [IIIb-01] : value?
< 5.00

pancreatic cancer cell line (BXPC3) / pIC50 / NC(=O)c1cc2c(Oc3c(F)cc(NC(=O)NC4CC4)c(Cl)c3F)ccnc2cc1OCC(F)(F)F [IIIb-57] : value?
> 5.30

pancreatic cancer cell line (BXPC3) / pIC50 / COc1cc2nccc(Oc3c(F)cc(NC(=O)NC4CC4)c(Cl)c3F)c2cc1C(=O)NCC1(C#N)CC1 [IIIb-49] : value?
< 5.00

---

What pIC50 was measured for each of the following?
Test system: pancreatic cancer cell line (BXPC3)
Assay: tumor cell proliferation inhibition (CTG), pancreatic cancer cell line
Format: cell-based
Conditions: Homo sapiens, BXPC-3, 72 hours
pIC50: −log10 of the molar value.

// query pIC50 value for entry COc1cc2nccc(Oc3c(F)cc(NC(=O)NC4CC4)c(Cl)c3F)c2cc1C(=O)NC(C)(C)C#N
< 5.00

// query pIC50 value for entry COc1cc2nccc(Oc3c(F)cc(NC(=O)NC4CC4)c(Cl)c3F)c2cc1C(=O)Nc1cncn1C
< 5.00

// query pIC50 value for entry NC(=O)c1cc2c(Oc3c(F)cc(NC(=O)NC4CC4)c(Cl)c3F)ccnc2cc1OCCO
> 5.30

// query pIC50 value for entry COc1cc2nccc(Oc3c(F)cc(NC(=O)NC4CC4)c(Cl)c3F)c2cc1C(=O)N1CC[C@@H](O)C1
< 5.00

---

Target: RET (Homo sapiens (Human), UniProt P07949)
Sequence (P07949 29-1114): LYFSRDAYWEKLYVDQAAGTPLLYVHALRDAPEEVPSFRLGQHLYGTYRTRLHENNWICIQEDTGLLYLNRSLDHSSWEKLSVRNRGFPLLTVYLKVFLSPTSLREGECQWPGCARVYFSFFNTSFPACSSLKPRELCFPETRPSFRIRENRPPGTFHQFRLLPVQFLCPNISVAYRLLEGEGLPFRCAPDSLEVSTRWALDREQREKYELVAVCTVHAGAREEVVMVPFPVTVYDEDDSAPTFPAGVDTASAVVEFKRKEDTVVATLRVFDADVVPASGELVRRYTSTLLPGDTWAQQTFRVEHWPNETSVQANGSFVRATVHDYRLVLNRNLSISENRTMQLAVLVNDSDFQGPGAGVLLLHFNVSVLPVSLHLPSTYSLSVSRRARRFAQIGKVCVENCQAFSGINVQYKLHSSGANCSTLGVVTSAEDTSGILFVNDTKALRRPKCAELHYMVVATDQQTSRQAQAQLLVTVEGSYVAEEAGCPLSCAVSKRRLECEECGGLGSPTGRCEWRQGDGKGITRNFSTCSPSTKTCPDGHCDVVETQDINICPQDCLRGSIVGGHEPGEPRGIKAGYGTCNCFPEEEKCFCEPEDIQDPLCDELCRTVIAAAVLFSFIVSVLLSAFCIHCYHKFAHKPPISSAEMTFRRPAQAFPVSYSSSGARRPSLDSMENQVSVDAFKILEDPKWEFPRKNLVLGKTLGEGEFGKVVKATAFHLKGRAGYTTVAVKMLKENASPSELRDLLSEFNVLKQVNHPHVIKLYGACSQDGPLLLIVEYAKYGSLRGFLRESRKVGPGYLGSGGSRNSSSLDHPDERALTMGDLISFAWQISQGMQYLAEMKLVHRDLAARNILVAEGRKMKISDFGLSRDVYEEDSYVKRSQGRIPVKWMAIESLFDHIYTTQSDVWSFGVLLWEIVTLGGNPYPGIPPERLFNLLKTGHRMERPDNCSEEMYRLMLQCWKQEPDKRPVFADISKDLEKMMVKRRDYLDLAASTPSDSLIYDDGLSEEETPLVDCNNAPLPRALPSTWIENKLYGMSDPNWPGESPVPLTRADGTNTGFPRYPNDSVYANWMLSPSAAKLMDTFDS
Recorded Endpoint: IC50

// query IC50 value for entry COc1cc2nccc(Oc3c(F)cc(NC(=O)NC4CC4)c(Cl)c3F)c2cc1C(=O)NCCC#N [IIIb-50]
< 5 nM

// query IC50 value for entry NC(=O)c1cc2c(Oc3c(F)cc(NC(=O)NC4CC4)c(Cl)c3F)ccnc2cc1OCC(F)F [IIIb-56]
< 5 nM

// query IC50 value for entry NC(=O)c1cc2c(Oc3c(F)cc(NC(=O)NC4CC4)c(Cl)c3F)ccnc2cc1OCCO [IIIb-60]
< 5 nM

// query IC50 value for entry COc1cc2nccc(Oc3c(F)cc(NC(=O)NC4CC4)c(Cl)c3F)c2cc1C(=O)NCC(F)(F)F [IIIb-09]
5 to 10 nM
